# study_system: Fibroblast growth factor 10 (Homo sapiens)
# experimental_protocol: compounds binding fibroblast growth factor 10 – biochemical, small-molecule microarray, 635 nm fluorescence, primary screen (AID 1102)
# condition_context: FGF10 binding, fluorescence 635 nm, higher = more signal
Measured composite z-score, listed per entry.
value_kind: composite z-score

{"columns": ["compound", "value_kind", "numeric_value"],
 "data": [
  ["CCCCN1CC=CC23O[C@@H]4/C=C\\CCCOC(=O)C4[C@H]2C(=O)N(CCCO)[C@@H]3C1=O (some centres undefined)", "composite z-score", -1.11],
  ["COCC(=C=CC[C@H](O)c1cccc(OCCO)c1)CCO", "composite z-score", 0.569],
  ["CCCNC(=O)[C@@H]1c2ccccc2C(=O)N(Cc2ccccc2OC)[C@H]1c1ccc(CO)cc1", "composite z-score", 0.714],
  ["O=C(NC1CC1)[C@@H]1c2ccccc2C(=O)N(Cc2cc(F)cc(C(F)(F)F)c2)[C@H]1c1ccc(CO)cc1", "composite z-score", -0.216]
]}

----------
# experimental_protocol: S. pombe growth modifiers, basal conditions – strain 972, OD600, 24 h, no modulator, primary screen (AID 1090);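 further: basal condition with compound alone and no growth modifier present; test concentration not given here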
# condition_context: S. pombe 972 growth, higher = more signal, called active from +8 up or from −8 down
value_kind: z-score

{"columns": ["molecule", "numeric_value"],
 "data": [
  ["COc1cc(CO)cc(I)c1O[C@H]1C=C(C(=O)NCCO)C[C@@H](NC[C@@H]2CCCO2)[C@@H]1O", -0.424],
  ["CC(=O)Nc1cc(Br)ccc1C(=O)NCc1ccccc1", -6.28],
  ["COCC(=C=CC[C@@H](O)c1ccc(OCCO)cc1)C[C@@H](O)c1ccccn1", -1.13],
  ["CN1C(=O)C2C=CC(C(O)c3ccccc3)N(N3CCCCC3)C2C1=O (stereo unspecified)", 0.24],
  ["O=C1O[C@@H](c2ccccc2)[C@@H](c2ccccc2)N2[C@@H](c3ccc(OCCO)cc3)[C@]3(C(=O)Nc4ccc(C#CCCO)cc43)[C@@H](C(=O)NC[C@H](O)c3ccccc3)[C@H]12", 1.19],
  ["O=c1cccc(-c2ccccc2Cl)o1", -0.463],
  ["CCOC(=O)C1=CC[C@@H](c2ccccc2)N(S(=O)(=O)c2ccc(C)cc2)[C@H]1c1ccc(CC)cc1", 1.94],
  ["C=CCN1C(=O)[C@]2(Cc3ccccc3)N=C(c3ccc(OCCCO)cc3)O[C@@H]2c2ccccc21", -0.694],
  ["O=C1C2C=CC(C(O)c3ccc4c(c3)OCO4)N(Nc3ccc([N+](=O)[O-])cc3)C2C(=O)N1c1ccccc1 (stereo unspecified)", 0.484],
  ["CCOC(=O)C[C@H]1[C@H](OC(=O)c2ccc(-c3ccccc3)cc2)[C@@H](NC(=O)c2ccccc2)c2cc(OCCCO)ccc2N1C(=O)c1ccc2ccccc2n1", 0.0452],
  ["C=C(/C(=C/C[C@H](OC(C)=O)c1ccc(OCCO)cc1)c1cc(C(=O)OC)ccc1OC)C(C)C", -0.299],
  ["COCCOC(=O)N1C(=O)[C@@]2(c3cc(C#CC4=CCCCC4)ccc31)[C@H](C(N)=O)[C@H]1C(=O)O[C@H](c3ccccc3)[C@H](c3ccccc3)N1[C@@H]2c1ccc(O)cc1", -0.638],
  ["CCOC(=O)C1=C[C@@H](C(C)C)N(S(=O)(=O)c2ccc(C)cc2)[C@H]1c1ccccc1F", 1.51],
  ["C=CCC(OC(C)=O)[C@@H]1[C@@H](N(Cc2ccc(-c3cccc(C(F)(F)F)c3)o2)C(=O)c2cccc3ccccc23)c2cc(OCCCO)ccc2N1C(=O)Cc1ccc2ccccc2c1 (stereo partly specified)", -0.463],
  ["COc1ccc(C#Cc2ccc3c(c2)[C@]2(C(=O)N3)[C@H](c3ccc(O)cc3)N3[C@H](c4ccccc4)[C@H](c4ccccc4)OC(=O)[C@H]3[C@@H]2C(=O)N2CCc3cc(OC)c(OC)cc3C2)cc1", 0.921],
  ["C=CC[C@]1(C(=O)NCc2ccccc2)N=C(c2ccc(OCCCO)cc2)O[C@H]1c1ccccc1CN=[N+]=[N-]", -0.175],
  ["COC(=O)c1c(CC[C@@H](CO)NC(=O)N[C@H](Cc2ccccc2)Cn2cc(-c3ccccn3)nn2)oc(C(C)=O)c1C(=O)OC", 0.0254],
  ["O=C1C2C=CC(C(O)c3c(F)cccc3Cl)N(Nc3ccccc3F)C2C(=O)N1c1ccccc1 (stereo unspecified)", 1.03],
  ["CC1CC/C=C\\[C@H]2OC34C=CCN(Cc5ccccc5)C(=O)[C@H]3N(C(C)CO)C(=O)[C@@H]4C2C(=O)O1 (stereo partly specified)", -1.48],
  ["CCCNC(=O)[C@@H]1c2ccccc2C(=O)N(Cc2ccccc2OC)[C@H]1c1ccc(CO)cc1", -0.19],
  ["C=CCNC(=O)[C@@H]1[C@H]2C(=O)O[C@H](c3ccccc3)[C@H](c3ccccc3)N2[C@H](c2ccc(OCCO)cc2)[C@@]12C(=O)N(C(=O)OCCOC)c1ccc(C#CCNC(N)=O)cc12", -0.221]
]}

----------
# study_system: Homeobox protein Hox-A13 (Mus musculus)
# experimental_protocol: disruptors of Hoxa13 oligonucleotide interaction – biochemical, fluorescence polarization, labeled oligonucleotide, primary screen (AID 1185)
# condition_context: Hoxa13:DNA binding, 15 min, higher = more signal, called active from +8 up or from −8 down
z-score below -3 gives Criterion not met; z-score at or above it gives Criterion met.

{"columns": ["compound", "study_system", "classification"],
 "data": [
  ["COc1ccc([Si](C)(C)[C@H]2[C@H](CCO)O[C@@]3(C(=O)N(Cc4ccccc4)c4ccc(N5CCCCC5=O)cc43)[C@@H]2C)cc1", "Homeobox protein Hox-A13 (Mus musculus)", "Criterion not met"],
  ["CCCCC(O)C1C=CC2C(=O)N(C)C(=O)C2N1N1CCCCC1 (configuration not stated)", "Homeobox protein Hox-A13 (Mus musculus)", "Criterion not met"],
  ["COCCOC(=O)N1C(=O)[C@@]2(c3cc(C#CCCO)ccc31)[C@H](c1ccc(O)cc1)N1[C@H](c3ccccc3)[C@H](c3ccccc3)OC(=O)[C@H]1[C@@H]2C(=O)N1CCN(c2ncccn2)CC1", "Homeobox protein Hox-A13 (Mus musculus)", "Criterion met"],
  ["COC(=O)C[C@H]1O[C@@H](CCc2ccccc2)[C@@H](C)[C@@H]1[Si](C)(C)c1ccc(OC)cc1", "Homeobox protein Hox-A13 (Mus musculus)", "Criterion not met"],
  ["COc1ccc([Si](C)(C)[C@@H]2[C@@H](CCO)O[C@]3(C(=O)N(Cc4cccc(N5CCOC5=O)c4)c4ccccc43)[C@H]2C)cc1", "Homeobox protein Hox-A13 (Mus musculus)", "Criterion not met"],
  ["O=C1O[C@@H](c2ccccc2)[C@@H](c2ccccc2)N2[C@@H](c3ccccc3OCCO)[C@]3(C(=O)Nc4ccc(C#CC5(O)CCCCCC5)cc43)[C@@H](C(=O)N3CCN(c4ncccn4)CC3)[C@H]12", "Homeobox protein Hox-A13 (Mus musculus)", "Criterion met"],
  ["C=C(CCCC)/C(=C/C[C@H](OC(C)=O)c1ccc(OCCO)cc1)c1cnc2ccccc2c1", "Homeobox protein Hox-A13 (Mus musculus)", "Criterion not met"],
  ["C=CCNC(=O)[C@@H]1[C@H]2C(=O)O[C@H](c3ccccc3)[C@H](c3ccccc3)N2[C@H](c2ccc(OCCO)cc2)[C@@]12C(=O)N(C(=O)OCCOC)c1ccc(C#CCNC(N)=O)cc12", "Homeobox protein Hox-A13 (Mus musculus)", "Criterion met"],
  ["COc1ccc(C(O)C2C=CC3C(=O)N(C)C(=O)C3N2N(c2ccccc2)c2ccccc2)c2ccccc12 (configuration not stated)", "Homeobox protein Hox-A13 (Mus musculus)", "Criterion met"],
  ["CCCC=C(CCC)[C@@H](NS(=O)(=O)c1ccc(Cl)cc1)c1ccc(C(=O)OC)cc1", "Homeobox protein Hox-A13 (Mus musculus)", "Criterion met"],
  ["CC(C)(C)OC(=O)CC[C@@]1(C(=O)N2CCCCC2)N=C(c2ccc(OCCCO)cc2)O[C@@H]1c1ccccc1", "Homeobox protein Hox-A13 (Mus musculus)", "Criterion not met"],
  ["O=C(O)[C@@]1(CCS(=O)(=O)c2ccccc2)N=C(c2ccc(OCCCO)cc2)O[C@H]1c1ccccc1", "Homeobox protein Hox-A13 (Mus musculus)", "Criterion not met"],
  ["CCCCCCc1nc(-c2ccc(-c3ccc(Cl)c(Cl)c3)o2)cc2c1[Si](C(C)C)(C(C)C)O[C@H]2c1ccccc1", "Homeobox protein Hox-A13 (Mus musculus)", "Criterion met"],
  ["C=C(CCCC)C(=O)CC[C@@H](OC(C)=O)c1ccc(CO)o1", "Homeobox protein Hox-A13 (Mus musculus)", "Criterion not met"],
  ["COc1cc2c(cc1O)C=[N+](Cc1cc3c(cc1Br)OCO3)CC2", "Homeobox protein Hox-A13 (Mus musculus)", "Criterion not met"],
  ["COc1ccc([C@H]2C[C@H]3C(I)=C[C@@H]2C(=O)[C@]32CO2)cc1", "Homeobox protein Hox-A13 (Mus musculus)", "Criterion met"],
  ["COCCOC(=O)N1C(=O)[C@@]2(c3cc(C#CCCO)ccc31)[C@H](c1ccc(OCCO)cc1)N1[C@H](c3ccccc3)[C@H](c3ccccc3)OC(=O)[C@H]1[C@@H]2C(N)=O", "Homeobox protein Hox-A13 (Mus musculus)", "Criterion met"],
  ["COC(=O)C(CC#Cc1ccc2c(c1)[C@]1(C(=O)N2)[C@H](c2ccccc2OCCO)N2[C@H](c3ccccc3)[C@H](c3ccccc3)OC(=O)[C@H]2[C@@H]1C(=O)O)C(=O)OC", "Homeobox protein Hox-A13 (Mus musculus)", "Criterion not met"],
  ["CC1CC/C=C\\[C@H]2OC34C=CCN(Cn5nnc6ccccc65)C(=O)[C@H]3N(CCCCCO)C(=O)[C@@H]4C2C(=O)O1 (some centres not stated)", "Homeobox protein Hox-A13 (Mus musculus)", "Criterion not met"],
  ["COCCOC(=O)N1C(=O)[C@@]2(c3cc(C#CC4=CCCCC4)ccc31)[C@H](C(N)=O)[C@H]1C(=O)O[C@H](c3ccccc3)[C@H](c3ccccc3)N1[C@@H]2c1ccc(O)cc1", "Homeobox protein Hox-A13 (Mus musculus)", "Criterion met"],
  ["CC[C@@H]1C=C(C(=O)O)[C@H](c2ccc(C)cc2)N1S(=O)(=O)c1ccc(C)cc1", "Homeobox protein Hox-A13 (Mus musculus)", "Criterion met"]
]}

Data credit: PubChem BioAssay
